# assayed-system: human GLP-1R receptor (Homo sapiens, UniProt P43220)
# Sequence (P43220 24-463): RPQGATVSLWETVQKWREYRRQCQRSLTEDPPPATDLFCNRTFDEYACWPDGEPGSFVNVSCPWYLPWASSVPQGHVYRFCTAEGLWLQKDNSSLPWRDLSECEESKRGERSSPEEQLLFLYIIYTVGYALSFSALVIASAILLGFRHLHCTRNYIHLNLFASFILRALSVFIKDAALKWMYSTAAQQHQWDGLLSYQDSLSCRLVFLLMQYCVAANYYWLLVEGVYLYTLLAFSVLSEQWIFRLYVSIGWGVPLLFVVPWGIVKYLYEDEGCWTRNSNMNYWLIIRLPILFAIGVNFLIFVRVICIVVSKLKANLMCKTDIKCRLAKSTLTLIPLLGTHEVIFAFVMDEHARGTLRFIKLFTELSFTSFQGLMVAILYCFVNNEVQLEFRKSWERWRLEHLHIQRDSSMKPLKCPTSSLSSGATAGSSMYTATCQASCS
# measurement-description: GLP-1R low expression cell assay (cAMP TR-FRET, CHO-K1_hGLP-1Rlow_clone10 cells)
# reported-conditions: cAMP TR-FRET, 30 min at 25° C.
pEC50: −log10 of the molar value.
Would you mind telling me the reported pEC50 of each entry?

Exam item: Which pEC50 reading was recorded for the compound C[C@@H](c1nc2c(OC(F)F)cc(C(=O)O)cc2n1C)N1CCC(c2cccc(OCc3ccc(C#N)cc3F)n2)CC1 [Compound 119] ?
Marked response: 7.00 to 8.00

Exam item: For the compound COc1cc(C(=O)O)c(F)c2c1nc(CN1CCC(c3cccc(OCc4ccc(C#N)cc4F)n3)CC1)n2C [Compound 303] , what pEC50 is on record?
Marked response: 7.00 to 8.00

Exam item: pEC50 lookup needed for Cn1c(CN2CCC(c3cccc4c3O[C@H](c3ccc(Cl)cc3F)CO4)CC2)nc2c(OC(F)F)cc(C(=O)O)cc21 [Compound 335] , thanks.
Marked response: < 6.00

Exam item: May I ask what pEC50 has been recorded for C[C@]1(c2ccc(Cl)cn2)Oc2cccc(C3CCN(Cc4nc5c(O)cc(C(=O)O)cc5n4Cc4cncs4)CC3)c2O1 [Compound 90] ?
Marked response: > 8.00

Exam item: Could you tell me which pEC50 is on file for Cn1c(CN2CCC(c3cccc(OCc4ccc(Cl)cc4F)c3)CC2)nc2c(OC(F)F)cc(N3CC(=O)NS3(=O)=O)cc21 [Compound 281] ?
Marked response: < 6.00

Exam item: Can you look up the measured pEC50 of Cn1c(CN2CCC(c3ccc4c(c3)N(Cc3ccc(Cl)cc3F)CCO4)CC2)nc2c(OC(F)F)cc(C(=O)O)cc21 [Compound 373] for me?
Marked response: < 6.00

Exam item: Would you kindly share the measured pEC50 for CCCOc1cc(C(=O)O)cc2c1nc(CN1CCC(c3cccc(OCc4ccc(C#N)cc4F)n3)CC1)n2C [Compound 319] ?
Marked response: 7.00 to 8.00

Exam item: Any idea what pEC50 was measured for Cn1c(Cc2ccc(-c3cccc(OCc4ccc(C#N)cc4F)n3)cc2F)nc2c(OC(F)F)cc(C(=O)O)cc21 [Compound 120] ?
Marked response: > 8.00

Exam item: I'd like to know its pEC50. The compound in question is CC(F)Oc1cc(C(=O)O)cc2c1nc(CN1CCC(c3cccc(OCc4ccc(Cl)cc4F)n3)CC1)n2C (centres unmarked) [Compound 359]
Marked response: > 8.00

Exam item: Look up pEC50: COc1cc(-c2cc(=O)[nH]o2)cc2c1nc(CN1CCC(c3cccc(OCc4ccc(Cl)cc4F)n3)CC1)n2C[C@@H]1CCO1 [Compound 382]
Marked response: > 8.00

Exam item: What value of pEC50 has been recorded for this entry: Cn1c(CN2CCC(c3cccc(CCc4ccc(Cl)cc4)n3)CC2)nc2c(OC(F)F)cc(C(=O)O)cc21 [Compound 219]
Marked response: < 6.00

Exam item: I am curious: what pEC50 value has been reported for CC(CF)Oc1cc(C(=O)O)cc2c1nc(CN1CCC(c3cccc(OCc4ccc(Cl)cc4F)n3)CC1)n2C (single isomer, unassigned) [Compound 263] ?
Marked response: > 8.00

Exam item: Need pEC50 of Cn1c(CN2CCC(c3cccnc3NCc3ccc(Cl)cc3F)CC2)nc2c(OC(F)F)cc(C(=O)O)cc21 [Compound 239] , thanks.
Marked response: < 6.00

Exam item: Consider the compound Cn1c(CN2CCC(c3cccc4c3O[C@H](c3ccc(C#N)cc3F)CO4)CC2)nc2c(OCCF)cc(C(=O)O)cc21 [Compound 315] and give its measured pEC50.
Marked response: 7.00 to 8.00
